// data source = patent US9862708B2

Target: human PPARα (Homo sapiens, UniProt Q07869)
Construct: host or cells: proprietary non-human mammalian cells
Sequence (Q07869 whole entry): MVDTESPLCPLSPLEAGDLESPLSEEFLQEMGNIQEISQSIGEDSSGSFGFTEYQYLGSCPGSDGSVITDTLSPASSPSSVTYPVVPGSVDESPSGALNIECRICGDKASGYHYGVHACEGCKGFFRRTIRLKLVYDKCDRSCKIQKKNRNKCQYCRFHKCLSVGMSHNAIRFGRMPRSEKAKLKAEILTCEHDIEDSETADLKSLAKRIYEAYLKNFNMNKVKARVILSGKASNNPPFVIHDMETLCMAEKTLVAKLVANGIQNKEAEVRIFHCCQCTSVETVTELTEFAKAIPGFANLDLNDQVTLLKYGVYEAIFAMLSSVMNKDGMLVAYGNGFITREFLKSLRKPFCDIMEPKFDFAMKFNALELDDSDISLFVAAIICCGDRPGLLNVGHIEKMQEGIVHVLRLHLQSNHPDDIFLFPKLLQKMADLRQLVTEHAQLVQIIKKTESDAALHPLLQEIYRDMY
Assay: Human PPARα Reporter Assay (luciferase, Indigo Biosciences)
Assay type: cell-based
Details: antagonism; luciferase reporter cells, overnight incubation; read-out: PPARα IC50
pIC50: −log10 of the molar value.
# cutoff 8 applies to pIC50; >= gives true (1), < gives false (0)

CC1(C)C(=O)N(c2ccc(C(F)(F)F)cc2)N=C1CCCc1ccc(OC(C)(C)C(O)C(F)(F)F)cc1 (stereo not shown) ... false (0)

Has `CCCC1(CCC)C(=O)N(c2cccc(C(F)(F)F)c2)N=C1CCCc1ccc(OC(C)(C)C(=O)O)cc1` a recorded pIC50 greater than or equal to 8?
false (0)
